ASSAY_EXPLANATION: Aqueous equilibrated solubility
Format: physicochemical
APPLIED_CONDITIONS: thermodynamic from solid; aqueous phosphate buffer 50 mM pH 7.4, shaken overnight at RT; pH 7.5 = pH of the solubilized fraction
READOUT_NAME: solubility at 24 h (µg/mL)

>  <COMPOUND>
O=C(Cc1ccc([S@@+]([O-])CC2CC2)cc1)Nc1ccc([C@](O)(C(F)F)C(F)(F)F)cc1 (single isomer, unassigned)

>  <solubility at 24 h (µg/mL)>
92.5

$$$$
>  <COMPOUND>
O=C(Cc1ccc([S@+]([O-])CC2CC2)cc1)Nc1ccc([C@](O)(C(F)F)C(F)(F)F)cc1 (single isomer, unassigned)

>  <solubility at 24 h (µg/mL)>
93

$$$$
>  <COMPOUND>
O=C(Cc1ccc([S@@+]([O-])CC2CC2)cc1)Nc1ccc([C@@](O)(C(F)F)C(F)(F)F)cc1 (single isomer, unassigned)

>  <solubility at 24 h (µg/mL)>
94.8

$$$$
>  <COMPOUND>
O=C(Cc1ccc([S+]([O-])CC2CC2)cc1)Nc1ccc(C(O)(C(F)F)C(F)(F)F)cc1 (stereo not shown)

>  <solubility at 24 h (µg/mL)>
99.4

$$$$
>  <COMPOUND>
O=C(Cc1ccc([S@+]([O-])CC2CC2)cc1)Nc1ccc([C@@](O)(C(F)F)C(F)(F)F)cc1 (single isomer, unassigned)

>  <solubility at 24 h (µg/mL)>
94.4

$$$$
